For each record, write down the corresponding IC50.
- subject-of-test: recombinant human MMP13 catalytic domain (CD) (Homo sapiens, UniProt P45452)
- Construct: catalytic domain (CD) construct encompassing residues 20-274 (SWISS-PROT P45452)
- assay: MMP-13 catalytic domain FRET enzyme assay
- assay-conditions: recombinant human MMP-13 catalytic domain

Q: Query: IC50; subject: COc1cc(CNC(=O)c2cc(C3=NOC(C4CCN(S(=O)(=O)C(C)C)CC4)C3)nc(C)n2)ccc1F (centres unmarked)
A: < 10 nM

Q: Query: IC50; subject: CNC(=O)Cn1cc(C2CC(c3cc(C(=O)NCc4ccc(F)c(OC)c4)nc(C)n3)=NO2)cc(Cl)c1=O (centres unmarked)
A: < 10 nM

Q: Query: IC50; subject: COc1cc(CNC(=O)c2cc(C3=NOC([C@H]4CC[C@H](NS(C)(=O)=O)CC4)C3)nc(C)n2)ccc1F (some centres unmarked)
A: < 10 nM

Q: Query: IC50; subject: Cc1nc(C(=O)NCc2ccc(F)c(F)c2)cc(C2=NOC(C3CCN(C(=O)CO)CC3)C2)n1 (centres unmarked)
A: 10 to 100 nM

Q: Query: IC50; subject: COc1cc(CNC(=O)c2cc(C3=NOC(c4cn[nH]c4)C3)nc(C)n2)ccc1F (centres unmarked)
A: 10 to 100 nM

Q: Query: IC50; subject: `Cc1nc(C(=O)NCc2ccc3c(c2)NC(=O)CO3)cc(C2=NO[C@@H]([C@H]3CC[C@H](NC(=O)[C@H](C)O)CC3)C2)n1`
A: < 10 nM

Q: Query: IC50; subject: COc1cc(CNC(=O)c2cc(C3=NOC(C4CCN(C(=O)Nc5ccon5)CC4)C3)nc(C)n2)ccc1F (centres unmarked)
A: 10 to 100 nM

Q: Query: IC50; subject: Cc1nc(C(=O)NCc2ccc(F)cc2)cc(C2=NOC(c3ccc(C#N)nn3)C2)n1 (centres unmarked)
A: 10 to 100 nM

Q: Query: IC50; subject: `COc1cc(CNC(=O)c2cc(C3=NO[C@H]([C@H]4CO[C@H](C(=O)O)CO4)C3)nc(C)n2)ccc1F`
A: < 10 nM

Q: Query: IC50; subject: `COc1cccc(CNC(=O)c2cc(C3=NO[C@@H]([C@@H]4CO[C@@H](CO)CO4)C3)nc(C)n2)c1`
A: > 1000 nM

Q: Query: IC50; subject: COc1cc(CNC(=O)c2cc(C3=NOC(c4cnccn4)C3)nc(C)n2)ccc1F (centres unmarked)
A: 10 to 100 nM

Q: Query: IC50; subject: COc1cc(CNC(=O)c2cc(C3=NOC(C4CCN(C(=O)NCCO)CC4)C3)nc(C)n2)ccc1F (centres unmarked) [drawing 888]
A: < 10 nM

Q: Query: IC50; subject: CCNC(=O)N1CCC(C2CC(c3cc(C(=O)NCc4ccc(F)c(OC)c4)nc(C)n3)=NO2)CC1 (centres unmarked) [drawing 1062]
A: 10 to 100 nM

Q: Query: IC50; subject: COc1cc(CNC(=O)c2cc(C3=NOC(c4ccnc(C(C)(C)O)c4)C3)nc(C)n2)ccc1F (centres unmarked)
A: 10 to 100 nM

Q: Query: IC50; subject: COc1cc(CNC(=O)c2cc(C3=NOC([C@H]4CC[C@H](CNC(C)=O)CC4)C3)nc(C)n2)ccc1F (some centres unmarked)
A: < 10 nM

Q: Query: IC50; subject: COc1cc(CNC(=O)c2cc(C3=NOC(C(=O)N4CCCC4)C3)nc(C)n2)ccc1F (centres unmarked)
A: > 1000 nM

Q: Query: IC50; subject: CC(=O)N1CCC(C2CC(c3cc(C(=O)NCc4ccc(F)c(Cl)c4)nc(C)n3)=NO2)CC1 (centres unmarked)
A: 10 to 100 nM

Q: Query: IC50; subject: Cc1nc(C(=O)NCc2ccc(F)c(Cl)c2)cc(C2=NO[C@H]([C@H]3CO[C@H](CO)CO3)C2)n1 [drawing 901]
A: < 10 nM

Q: Query: IC50; subject: COc1cc(CNC(=O)c2cc(C3=NOC(c4ccn(CC(=O)N(C)OC)c(=O)c4)C3)nc(C)n2)ccc1F (centres unmarked)
A: 10 to 100 nM

Q: Query: IC50; subject: `COc1ccc(CNC(=O)c2cc(C3=NO[C@H](c4ccc(OCCO)cc4)C3)nc(C)n2)cc1`
A: < 10 nM

Q: Query: IC50; subject: `COc1cc(CNC(=O)c2cc(C3=NO[C@@H]([C@@H]4CO[C@@H](CO)CO4)C3)nc(C)n2)ccc1F`
A: 100 to 1000 nM

Q: Query: IC50; subject: COc1cc(CNC(=O)c2cc(C3=NOC([C@H]4CC[C@H](NC(=O)CO)CC4)C3)nc(C)n2)ccc1F (some centres unmarked)
A: < 10 nM

Q: Query: IC50; subject: Cc1nc(C(=O)NCc2ccc(F)c(Cl)c2)cc(C2=NOC(c3ccc(C#N)nn3)C2)n1 (centres unmarked)
A: 10 to 100 nM

Q: Query: IC50; subject: `COc1cc(CNC(=O)c2cc(C3=NO[C@H](c4ccc(=O)n(C)c4)C3)nc(C)n2)ccc1F`
A: < 10 nM

Q: Query: IC50; subject: CNCC(C)N[C@H]1CC[C@H](C2CC(c3cc(C(=O)NCc4ccc(F)c(OC)c4)nc(C)n3)=NO2)CC1 (some centres unmarked)
A: 10 to 100 nM

Q: Query: IC50; subject: COc1cc(CNC(=O)c2cc(C3=NOC(c4cnc5c(cnn5C)c4)C3)nc(C)n2)ccc1F (centres unmarked)
A: 10 to 100 nM

Q: Query: IC50; subject: Cc1nc(C(=O)NCc2ccc(F)c(Cl)c2)cc(C2=NO[C@H]([C@H]3CO[C@@H](CO)CO3)C2)n1 [drawing 925]
A: 10 to 100 nM

Q: Query: IC50; subject: COc1cccc(CNC(=O)c2cc(C3=NOC(C4CCN(C(C)=O)CC4)C3)nc(C)n2)c1 (centres unmarked)
A: 10 to 100 nM

Q: Query: IC50; subject: CNC(=O)c1ccc(C2CC(c3cc(C(=O)NCc4ccc(F)c(OC)c4)nc(C)n3)=NO2)cc1 (centres unmarked)
A: < 10 nM

Q: Query: IC50; subject: COc1cc(CNC(=O)c2cc(C3=NO[C@H]([C@H]4CC[C@H](NC(C)=O)CC4)C3)nc(C)n2)ccc1F [drawing 1031]
A: < 10 nM

Q: Query: IC50; subject: COc1ccc(CNC(=O)c2cc(C3=NOC(C)(c4ccc(OCCO)cc4)C3)nc(C)n2)cc1 (centres unmarked)
A: 100 to 1000 nM

Q: Query: IC50; subject: COc1cc(CNC(=O)c2cc(C3=NOC(c4ccc(=O)n(CCO)c4)C3)nc(C)n2)ccc1F (centres unmarked)
A: 10 to 100 nM
